- System: SF-295 CNS
- Protocol Details: NCI tumour cell line growth inhibition, 48 h
Measurement Label: GI50

Answered examples (4):
>>> observed_value("CN(C)CCOC(=O)Nc1nc2ccc(Sc3ccccc3)cc2[nH]1")
"2.96 µM"
>>> observed_value("CCn1ccc(NS(=O)(=O)c2ccc(N)cc2)nc1=O")
"> 100 µM"
>>> observed_value("Cn1c2ccccc2c2c(=O)n(CCCC(=O)OC(=NC3CCCCC3)NC3CCCCC3)c3c(-c4ccccc4)nnn3c21")
"79 µM"
>>> observed_value("N#CC1C(=O)NC(c2ccccc2[N+](=O)[O-])c2sc3c(F)cccc3c21 (stereo not given)")
"1.11 µM"

Short answer for COc1ccc2c(c1)C(=O)c1c-2c(Nc2cccc(C(C)=O)c2)nc2ccccc12 : GI50 was 21.7 µM

====

- Tested on: SNB-75 CNS
- Protocol Details: NCI tumour cell line growth inhibition, 48 h; in the data active means GI50 below about 0.43 µM; inactive means the rest
Reply using exactly one outcome from yes (1) (active), no (0) (inactive)

>>> label_class("C=C1C(=O)O[C@H]2[C@H]1CC/C(COC(=O)NCCCCCCCCNC(=O)OC/C1=C/CC[C@@]3(C)O[C@H]3[C@H]3OC(=O)C(=C)[C@@H]3CC1)=C\\CC[C@@]1(C)O[C@@H]21")
"no (0)"
>>> label_class("Cc1ccc(OCC2OC(n3cnc4c(Br)nc(Br)nc43)CC2Oc2ccc(C)cc2)cc1 (centres undefined)")
"no (0)"
>>> label_class("CCC[CH2][Pb]([Cl])([CH2]CCC)[CH2]CCC")
"yes (1)"
>>> label_class("CCOP1(=O)C=C(C)C(=C(Cl)Cl)C(C)=C1 (centres undefined)")
"no (0)"
>>> label_class("O=C(/C=C/OC(=O)c1cccc(Cl)c1)c1ccc(Cl)cc1")
"no (0)"
>>> label_class("COC1=CC(=O)c2nc(Cl)ccc2C1=O")
"no (0)"
>>> label_class("C=CCc1c(O)c(C(=O)/C=C/c2ccccc2)c(OC)c2ccoc12")
"no (0)"
>>> label_class("CN1CCN(Cc2ccc(NC(=O)c3cncc(C#Cc4cnc(N)c5cnccc45)c3)cc2C(F)(F)F)CC1")
"yes (1)"

What classification did C#Cc1cccc(NC(=O)c2ccc(NC(=O)CCl)cc2)c1 end up with in this test?
no (0)

Identify the outcome logged in this assay for the compound shown: CCCCCC[C@H](C)NC(=O)c1ccc(Nc2nc3ccccc3c3occc23)cc1
no (0)

Any idea what this test logged for CC1(C)N=C(N)N=C(N)N1c1cccc(Br)c1 ?
no (0)

// param item: N#CC1C(=O)NC(c2ccccc2[N+](=O)[O-])c2sc3c(F)cccc3c21 (centres undefined) ; yields the recorded call
no (0)

Field: outcome | Entry: Nc1ncnc2c1ccn2[C@@H]1O[C@H]([C@H](O)c2ccc(Cl)c(F)c2)[C@@H](O)[C@H]1O
no (0)

Name the outcome recorded for CC1=C([Se]CC(OC(=O)[C@@H](CO)NC(=O)OC(C)(C)C)C(=O)NCCCCCC(=O)OCc2ccccc2)C(=O)c2ccccc2C1=O (some centres undefined) in the assay.
no (0)

Please indicate how the test categorized C/C(=N/N=C(N)N)c1ccc(NC(=O)Nc2ccc(/C(C)=N/N=C(N)N)cc2)cc1 .
no (0)

====

- System: SNB-19 CNS
- Protocol Details: NCI tumour cell line growth inhibition, 48 h
Measurement Label: TGI

Below, each entry is followed by its recorded TGI result.
>>> observed_value("COC(=O)C(/C(=N\\NC(N)=S)C(=O)Nc1ccccc1[N+](=O)[O-])c1cnc2ccccc2n1 (stereo unspecified)")
"> 100 µM"
>>> observed_value("Cn1c2ccccc2c2c(=O)n(CCCC(=O)OC(=NC3CCCCC3)NC3CCCCC3)c3c(-c4ccccc4)nnn3c21")
"> 100 µM"

Just so you know, measured TGI for CCCCCCCCC/C=C1/CC(CO)(COC(=O)c2ccccc2)OC1=O (stereo unspecified) came out at 29.1 µM

Please fill in: TGI reported for C/C(Cc1ccc2c(c1)OCO2)=N\NC(=O)C(C)Sc1nnc(SC(C)C(=O)N/N=C(\C)Cc2ccc3c(c2)OCO3)s1 (stereo unspecified) = > 100 µM

Data origin: PubChem BioAssay (NCI)
